Provenance of the data: ChEMBL document CHEMBL3988442

system: Wolbachia pipientis; assay: Anti-Wolbachia Cell-Based Screen; assay type: functional; parameters: scale not given: in the data most compounds retested in dose-response had high values; settings: 5 µM
Among all 48,000 compounds or so, about 13,000 (27%) showed an effect of 50% or more. The list shows a part of the results.
If the reported Percent Effect equals or exceeds 10%, assign t. If not, assign f.

> print(dat)
                                   molecule  label.class
1  Cc1nc(C)n(CC2CCCN2c2ccnc(-c3ccccc3)n2)n1 (stereo not given)            f

Q. Kindly determine if Percent Effect recorded for CC(=O)N(c1ccc(C)cc1)c1nc(CN2CCCCC2C)cs1 (stereo not given) is above or exactly 10%.
A. f

Q. Kindly determine if Percent Effect recorded for Cc1ccc(=O)n(Cc2csc(N(C)C3CC3)n2)n1 is above or exactly 10%.
A. f

Q. Kindly determine if Percent Effect recorded for Cc1c(C(=O)NS(=O)(=O)c2ccc(F)cc2)cnn1CC(C)C is above or exactly 10%.
A. f

Q. Kindly determine if Percent Effect recorded for Cc1nc(C)n(CC2CCCN2c2ncnc3ccsc23)n1 (stereo not given) is above or exactly 10%.
A. t

Q. Kindly determine if Percent Effect recorded for CN(C)C(=O)Cc1nc(CN2CCn3c(nnc3C3CC3)C2)cs1 is above or exactly 10%.
A. f

Q. Kindly determine if Percent Effect recorded for CC(=O)N(C)c1nc(Cn2nnnc2C(C)C)cs1 is above or exactly 10%.
A. t

Q. Kindly determine if Percent Effect recorded for Cc1nc(C)n(CC2CCCN2c2ncnc3c2CCC3)n1 (stereo not given) is above or exactly 10%.
A. f

Q. Kindly determine if Percent Effect recorded for CCC(CC)(CN)NC(C)c1ccccc1 (stereo not given) is above or exactly 10%.
A. f

Q. Kindly determine if Percent Effect recorded for Cc1nc(C)n(CC2CCCN2c2ncnc3sc(C)c(C)c23)n1 (stereo not given) is above or exactly 10%.
A. t
